test-system: Aldo-keto reductase family 1 member B1 (Homo sapiens, UniProt P15121)
experimental-details: Selectivity index, ratio of IC50 for ALR1 (unknown origin) to IC50 for ALR2 (unknown origin)
Please respond with reported Ratio IC50 for every item in the list.
Reply with the value as a number alone.

[Q] Return Ratio IC50 (reported value) for this compound: COc1ccc(NC(=O)CN2C(=O)NC3(C2=O)c2ccccc2-c2ccccc23)cc1
[A] 8.45

[Q] Write down Ratio IC50 measured for item O=C(CN1C(=O)NC2(C1=O)c1ccccc1-c1ccccc12)Nc1ccc(Br)cc1
[A] 32.6

[Q] Answer with the recorded Ratio IC50 for the compound listed here: O=C(CN1C(=O)NC2(C1=O)c1ccccc1-c1ccccc12)Nc1ccc(Cl)cc1
[A] 21.6

[Q] Please give measured Ratio IC50 of the following entry: COc1ccc(NC(=O)CN2C(=O)NC3(CCCCC3)C2=O)cc1
[A] 9.36

[Q] Fill in reported Ratio IC50 for this entry: Cc1ccc(NC(=O)CN2C(=O)NC3(C2=O)c2ccccc2-c2ccccc23)cc1
[A] 1.76

[Q] Give a short answer stating reported Ratio IC50 for O=C(CN1C(=O)NC2(CCCCC2)C1=O)Nc1ccc(Cl)cc1Cl .
[A] 16.9

[Q] Input O=C(CN1C(=O)NC2(CCCCC2)C1=O)Nc1ccc(Br)cc1 , output reported Ratio IC50.
[A] 43.4

[Q] Give Ratio IC50 for O=C(CN1C(=O)NC2(C1=O)c1ccccc1-c1ccccc12)Nc1ccc(Cl)cc1Cl
[A] 96

[Q] Identify measured Ratio IC50 associated with Cc1ccc(NC(=O)CN2C(=O)NC3(CCCCC3)C2=O)cc1
[A] 0.63

[Q] In one line, give reported Ratio IC50 of the entry O=C(CN1C(=O)NC2(CCCCC2)C1=O)Nc1ccc(Cl)cc1 .
[A] 18.3

---

Test system: Mus musculus
experimental-details: Antihyperglycemic activity in alloxan-induced diabetic BALB/c mouse model assessed as blood glucose level at 10 mg/kg measured after 6 hrs by glucometry analysis
Format: functional
quantity-measured: Activity (mg/dL)
Reply numerically in mg/dL, unit not repeated.

[Q] // output Activity; input O=C(CN1C(=O)NC2(CCCCC2)C1=O)Nc1ccc(Cl)cc1Cl ; system Mus musculus
[A] 217

[Q] // fetch Activity; item: O=C(CN1C(=O)NC2(C1=O)c1ccccc1-c1ccccc12)Nc1ccc(Cl)cc1 ; system: Mus musculus
[A] 189

[Q] Output reported Activity of the molecule COc1ccc(NC(=O)CN2C(=O)NC3(CCCCC3)C2=O)cc1 on Mus musculus.
[A] 231

[Q] GET Activity | system: Mus musculus | item: O=C(CN1C(=O)NC2(C1=O)c1ccccc1-c1ccccc12)Nc1ccc(Br)cc1
[A] 173

[Q] State Activity (Mus musculus) of CCOc1cc(CC(=O)N[C@@H](CC(C)C)c2ccccc2N2CCCCC2)ccc1C(=O)O [REPAGLINIDE] .
[A] 160

[Q] State recorded Activity with Mus musculus, entry COc1ccc(NC(=O)CN2C(=O)NC3(C2=O)c2ccccc2-c2ccccc23)cc1 , no comment.
[A] 279

[Q] Fetch value of Activity on Mus musculus for O=C(CN1C(=O)NC2(CCCCC2)C1=O)Nc1ccc(Cl)cc1 .
[A] 170

[Q] Tell me Activity of Cc1ccc(NC(=O)CN2C(=O)NC3(CCCCC3)C2=O)cc1 when tested on Mus musculus.
[A] 197

[Q] Determine reported Activity for O=C(CN1C(=O)NC2(C1=O)c1ccccc1-c1ccccc12)Nc1ccc(Cl)cc1Cl ; test system: Mus musculus.
[A] 168

[Q] Give Activity only, for Cc1ccc(NC(=O)CN2C(=O)NC3(C2=O)c2ccccc2-c2ccccc23)cc1 , using Mus musculus data.
[A] 211

[Q] Would you please give the reported Activity of O=C(CN1C(=O)NC2(CCCCC2)C1=O)Nc1ccc(Br)cc1 with Mus musculus?
[A] 182

---

Please provide measured pIC50 for the entries that follow.
# pIC50 is unitless: minus log10 of the molar concentration; print number only

[Q] Please indicate recorded pIC50 of O=C(CN1C(=O)NC2(CCCCC2)C1=O)Nc1ccc(Cl)cc1 measured with Aldo-keto reductase family 1 member A1 (Homo sapiens).
Sequence (P14550 2-325 limits assumed): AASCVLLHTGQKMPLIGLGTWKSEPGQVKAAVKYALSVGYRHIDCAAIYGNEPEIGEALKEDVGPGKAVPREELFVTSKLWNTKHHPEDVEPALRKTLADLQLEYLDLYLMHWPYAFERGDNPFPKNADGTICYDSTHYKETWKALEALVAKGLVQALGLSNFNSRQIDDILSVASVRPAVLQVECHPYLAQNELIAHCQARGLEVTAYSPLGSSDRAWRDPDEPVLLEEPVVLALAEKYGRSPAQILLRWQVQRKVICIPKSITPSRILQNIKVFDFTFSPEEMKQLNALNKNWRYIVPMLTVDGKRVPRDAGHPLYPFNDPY
[A] 4.68

[Q] Please look at COc1ccc(NC(=O)CN2C(=O)NC3(CCCCC3)C2=O)cc1 and tell me its recorded pIC50 on Aldo-keto reductase family 1 member A1 (Homo sapiens).
[A] 4.59

[Q] Find the measured pIC50 of Cc1ccc(NC(=O)CN2C(=O)NC3(CCCCC3)C2=O)cc1 with Aldo-keto reductase family 1 member A1 (Homo sapiens) as test system.
[A] 5.19

[Q] For Aldo-keto reductase family 1 member A1 (Homo sapiens), give pIC50 of the listed compound: O=C(CN1C(=O)NC2(C1=O)c1ccccc1-c1ccccc12)Nc1ccc(Br)cc1
[A] 4.52

[Q] System Aldo-keto reductase family 1 member A1 (Homo sapiens). Read-out pIC50. Item O=C(CN1C(=O)NC2(CCCCC2)C1=O)Nc1ccc(Cl)cc1Cl . Report value.
[A] 4.48

[Q] Please indicate recorded pIC50 of COc1ccc(NC(=O)CN2C(=O)NC3(C2=O)c2ccccc2-c2ccccc23)cc1 measured with Aldo-keto reductase family 1 member A1 (Homo sapiens).
[A] 4.62

---

What IC50 was measured for each of the following?
test-system: UniProtKB P15121
Give just the number in µM; leave the unit off.

[Q] Item O=C(CN1C(=O)NC2(C1=O)c1ccccc1-c1ccccc12)Nc1ccc(Cl)cc1 : provide IC50
[A] 1.03

[Q] Return IC50 (reported value) for this compound: O=C(CN1C(=O)NC2(CCCCC2)C1=O)Nc1ccc(Br)cc1
[A] 0.72

[Q] Provide measured IC50 value, entry: O=C(CN1C(=O)NC2(CCCCC2)C1=O)Nc1ccc(Cl)cc1
[A] 1.13

[Q] State its IC50: O=C(CN1C(=O)NC2(CCCCC2)C1=O)Nc1ccc(Cl)cc1Cl
[A] 1.95

[Q] Quick one: give measured IC50 for O=C(CN1C(=O)NC2(C1=O)c1ccccc1-c1ccccc12)Nc1ccc(Cl)cc1Cl
[A] 0.37
